src = patent US20190352358A1

# test-description: Pharmacokinetics in male Sprague Dawley rats after intravenous and subcutaneous injection (Example 10)
# Type: in vivo
# particulars: male, Sprague Dawley, plasma; iv, 1 μmol net peptide/kg, rat
Residues, ends and D or L forms follow the SMILES beside them. *: point of attachment. Stearoyl = CCCCCCCCCCCCCCCCCC(=O)*; Palmitoyl = CCCCCCCCCCCCCCCC(=O)*
parameter: Cmax (µM)
Write down the numeric answer in µM and omit the unit.

Below: 2 compounds and their reported Cmax.
compound	Cmax (µM)
CC(C)C[C@@H]1NC(=O)CNC(=O)[C@H](CC(C)C)NC(=O)[C@H](Cc2c[nH]cn2)NC(=O)[C@H](CCCCN)NC(=O)[C@H](CCCCN)NC(=O)[C@@H]2CCCN2C(=O)[C@H](CCC(=O)O)NC(=O)[C@H](CCC(=O)O)NC1=O [SEQ ID NO: 77, Cyclic(HLGLEEPKK)] (cyclo(EEPKKHLGL))	5.72
CCCCCCCCCCCCCCCC(=O)N[C@@H](Cc1c[nH]cn1)C(=O)N[C@@H](CC(C)C)C(=O)NCC(=O)N[C@@H](CC(C)C)C(=O)N[C@@H](CCC(=O)O)C(=O)N[C@@H](CCC(=O)O)C(=O)N1CCC[C@H]1C(=O)N[C@@H](CCCCN)C(=O)N[C@@H](CCCCN)C(=O)O [SEQ ID NO: 72, C16:0-HLGLEEPKK] (Palmitoyl-HLGLEEPKK-OH; C-terminus assumed)	7.89

Now take the following compound into account.
Answer with the recorded Cmax of CCCCCCCCCCCCCCCCCC(=O)N[C@@H](Cc1c[nH]cn1)C(=O)N[C@@H](CC(C)C)C(=O)NCC(=O)N[C@@H](CC(C)C)C(=O)N[C@@H](CCC(=O)O)C(=O)N[C@@H](CCC(=O)O)C(=O)N1CCC[C@H]1C(=O)N[C@@H](CCCCN)C(=O)N[C@@H](CCCCN)C(=O)O [SEQ ID NO: 73, C18:0-HLGLEEPKK] (Stearoyl-HLGLEEPKK-OH; C-terminus assumed) only.
10.2
